test: Plasma pharmacokinetics of BI 187004 after single oral doses (LC–MS/MS); settings: male, human, plasma, po, 160 mg, BI 187004 plasma concentrations, 160 mg single oral, planned time 12 h, Median
experimental_endpoint: concentration at 12 h (nM)
Your answer should be a plain number; it is taken to be in nM.

Write down concentration at 12 h measured for item N#Cc1ccc2c(c1)[C@H]1CCCN(C(=O)c3ccc4[nH]cnc4c3)[C@H]1C2 [BI 187004] 2910

* * *

assay: Plasma pharmacokinetics of BI 187004 after single oral doses (LC–MS/MS); conditions: male, human, plasma, po, 40 mg, BI 187004 plasma concentrations, 40 mg single oral, planned time 4 h, Median
experimental_endpoint: concentration at 4 h

Write down concentration at 4 h measured for item N#Cc1ccc2c(c1)[C@H]1CCCN(C(=O)c3ccc4[nH]cnc4c3)[C@H]1C2 [BI 187004] 1.53 µM

* * *

assay: Plasma pharmacokinetics of BI 187004 after single oral doses (LC–MS/MS); settings: male, human, plasma, po, 10 mg, Plasma concentration Median, 10 mg single oral; 12 h
experimental_endpoint: concentration at 12 h (nM)
Your answer should be a plain number; it is taken to be in nM.

Write down concentration at 12 h measured for item N#Cc1ccc2c(c1)[C@H]1CCCN(C(=O)c3ccc4[nH]cnc4c3)[C@H]1C2 [BI 187004] 147

* * *

assay: Plasma pharmacokinetics of BI 187004 after single oral doses (LC–MS/MS); details: male, human, plasma, po, 80 mg, BI 187004 plasma concentrations, 80 mg single oral, planned time 12 h, Median
experimental_endpoint: concentration at 12 h (nM)
Your answer should be a plain number; it is taken to be in nM.

Write down concentration at 12 h measured for item N#Cc1ccc2c(c1)[C@H]1CCCN(C(=O)c3ccc4[nH]cnc4c3)[C@H]1C2 [BI 187004] 1210

* * *

test: Plasma pharmacokinetics of BI 187004 after single oral doses (LC–MS/MS); settings: male, human, plasma, po, 360 mg, BI 187004 plasma concentrations, gMean, 360 mg single oral, planned time 72 h
experimental_endpoint: concentration at 72 h

Write down concentration at 72 h measured for item "N#Cc1ccc2c(c1)[C@H]1CCCN(C(=O)c3ccc4[nH]cnc4c3)[C@H]1C2" 246 nM

* * *

test: Plasma pharmacokinetics of BI 187004 after single oral doses (LC–MS/MS); details: male, human, plasma, po, 10 mg, Plasma concentration Mean, 10 mg single oral; 1 h
experimental_endpoint: concentration at 1 h (nM)
Your answer should be a plain number; it is taken to be in nM.

Write down concentration at 1 h measured for item N#Cc1ccc2c(c1)[C@H]1CCCN(C(=O)c3ccc4[nH]cnc4c3)[C@H]1C2 [BI 187004] 429

* * *

assay: Plasma pharmacokinetics of BI 187004 after single oral doses (LC–MS/MS); conditions: male, human, plasma, po, 20 mg, BI 187004 plasma concentrations, 20 mg single oral, planned time 0.5 h, Median
experimental_endpoint: concentration at 0.5 h (nM)
Your answer should be a plain number; it is taken to be in nM.

Write down concentration at 0.5 h measured for item N#Cc1ccc2c(c1)[C@H]1CCCN(C(=O)c3ccc4[nH]cnc4c3)[C@H]1C2 [BI 187004] 215
